# Assay Name: Pharmacokinetics in dog
# Reported Conditions: in vivo
Where a name gives a salt, the structure may show the parent alone.
Endpoint: half-life (h)
Just the number please, in h, no unit attached.

QUERY: Fill in: half-life of CCc1cc(C2=C(C(=O)O)N(c3ccccc3C(F)(F)F)S(=O)(=O)c3ccccc32)cc2c1OCO2 [Example 10, sodium salt] is ___
RESULT: 2.2

* * *

# Study System: recombinant human ETAR (HETA) (Homo sapiens, UniProt P25101)
# Construct: expressed in transfected cells; host or cells: Ltk- cells (membrane preparation)
# Assay Name: Radioligand binding, [125I]ET-1 to membranes of Ltk- cells expressing recombinant human ETAR (HETA)
# Reported Conditions: [125I]ET-1 binding, human ETA, Ltk- cell membranes; read-out: HETA (IC50)
Structures can show the parent of a compound that is named as a salt.
Threshold-based label: IC50 under 40 nM gives yes, IC50 not under 40 nM gives no.

Consider the following illustrative entries.
INSERT INTO measurements (molecule, study_system, cat) VALUES
  ('O=C(O)C1=C(c2ccc3c(c2)OCO3)c2ccccc2S(=O)(=O)N1c1ccccc1F', 'recombinant human ETAR (HETA) (Homo sapiens, UniProt P25101)', 'no'),
  ('CCCCc1ccccc1N1C(C(=O)O)=C(c2ccc3c(c2)OCO3)c2ccccc2S1(=O)=O', 'recombinant human ETAR (HETA) (Homo sapiens, UniProt P25101)', 'yes'),
  ('CC(C)c1ccccc1N1C(C(=O)O)=C(c2ccc3c(c2)OCO3)c2ccccc2S1(=O)=O', 'recombinant human ETAR (HETA) (Homo sapiens, UniProt P25101)', 'no'),
  ('Cc1noc(N2C(C(=O)O)=C(c3ccc4c(c3)OCO4)c3ccccc3S2(=O)=O)c1C', 'recombinant human ETAR (HETA) (Homo sapiens, UniProt P25101)', 'no'),
  ('Cc1cccc(C)c1N1C(C(=O)O)=C(c2ccc3c(c2)OCO3)c2ccccc2S1(=O)=O', 'recombinant human ETAR (HETA) (Homo sapiens, UniProt P25101)', 'yes');

QUERY: Is the reported IC50 for CCCc1ccccc1N1C(C(=O)O)=C(c2ccc3c(c2)OCO3)c2ccccc2S1(=O)=O strictly below 40 nM?
RESULT: yes

QUERY: Is the reported IC50 for COc1cc(C2=C(C(=O)O)N(c3ccccc3Br)S(=O)(=O)c3ccccc32)cc2c1OCO2 [Example 9, monosodium salt] strictly below 40 nM?
RESULT: yes

QUERY: Is the reported IC50 for O=C(O)C1=C(c2ccc3c(c2)OCO3)c2ccccc2S(=O)(=O)N1c1cc2c(cc1Cl)OCO2 strictly below 40 nM?
RESULT: no

QUERY: Is the reported IC50 for O=C(O)C1=C(c2ccc3c(c2)OCO3)c2ccccc2S(=O)(=O)N1c1cccc(Cl)c1Cl strictly below 40 nM?
RESULT: yes

QUERY: Is the reported IC50 for O=C(O)C1=C(c2ccc3c(c2)OCO3)c2ccccc2S(=O)(=O)N1c1ccccc1Cl strictly below 40 nM?
RESULT: yes

* * *

Recorded IC50 by entry
# Study System: recombinant human ETAR (HETA) (Homo sapiens)
# Construct: expressed in transfected cells; host or cells: Ltk- cells (membrane preparation)
# Sequence (P25101 21-427): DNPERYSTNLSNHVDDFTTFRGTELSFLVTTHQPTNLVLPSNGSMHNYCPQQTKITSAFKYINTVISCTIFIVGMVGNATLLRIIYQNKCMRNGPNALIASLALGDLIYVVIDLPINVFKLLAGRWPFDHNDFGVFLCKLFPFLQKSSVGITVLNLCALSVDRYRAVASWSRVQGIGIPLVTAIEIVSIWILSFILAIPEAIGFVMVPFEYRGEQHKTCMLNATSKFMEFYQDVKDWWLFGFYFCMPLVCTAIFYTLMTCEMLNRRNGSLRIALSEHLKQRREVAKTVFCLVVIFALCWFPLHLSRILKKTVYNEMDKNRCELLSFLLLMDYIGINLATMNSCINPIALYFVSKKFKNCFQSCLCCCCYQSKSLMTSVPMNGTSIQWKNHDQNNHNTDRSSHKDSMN
# Assay Name: Radioligand binding, [125I]ET-1 to membranes of Ltk- cells expressing recombinant human ETAR (HETA)
# Reported Conditions: [125I]ET-1 binding, human ETA, Ltk- cell membranes; read-out: HETA (IC50)
Just the number please, in nM, no unit attached.

Worked cases, answers included:
INSERT INTO results (input_smiles, study_system, test_value) VALUES
  ('Cc1ccccc1N1C(C(=O)O)=C(c2ccc3c(c2)OCO3)c2ccccc2S1(=O)=O', 'recombinant human ETAR (HETA) (Homo sapiens)', 61),
  ('O=C(O)C1=C(c2ccc3c(c2)OCO3)c2ccccc2S(=O)(=O)N1c1ccccc1Br', 'recombinant human ETAR (HETA) (Homo sapiens)', 30);

Now let's try a different one.
QUERY: Test system recombinant human ETAR (HETA) (Homo sapiens); read-out IC50; what value for O=C(O)C1=C(c2ccc3c(c2)OCO3)c2ccccc2S(=O)(=O)N1c1ccccc1C(F)(F)F ?
RESULT: 11

* * *

# Study System: recombinant human ETBR (HETB) (Homo sapiens)
# Sequence (P24530 27-442): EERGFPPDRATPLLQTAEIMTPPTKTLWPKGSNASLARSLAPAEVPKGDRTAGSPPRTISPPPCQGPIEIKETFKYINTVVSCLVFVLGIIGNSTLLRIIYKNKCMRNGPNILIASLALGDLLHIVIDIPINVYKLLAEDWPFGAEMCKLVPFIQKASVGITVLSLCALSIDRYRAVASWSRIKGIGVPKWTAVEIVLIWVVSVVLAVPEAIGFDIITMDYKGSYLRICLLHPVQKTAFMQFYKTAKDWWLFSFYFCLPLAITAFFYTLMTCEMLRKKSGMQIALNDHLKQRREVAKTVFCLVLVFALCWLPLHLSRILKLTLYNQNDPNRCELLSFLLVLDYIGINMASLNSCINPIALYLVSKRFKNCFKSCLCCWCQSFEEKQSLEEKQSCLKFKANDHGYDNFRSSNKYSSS
# Assay Name: Radioligand binding, [125I]ET-1 to membranes of CHOKI cells expressing recombinant human ETBR (HETB)
# Reported Conditions: [125I]ET-1 binding, human ETB, CHOKI cell membranes
pIC50: −log10 of the molar value.
Recorded pIC50 by entry

INSERT INTO measurements (compound, endpoint, test_value) VALUES
  ('Cc1cccc(C)c1N1C(C(=O)O)=C(c2ccc3c(c2)OCO3)c2ccccc2S1(=O)=O [Example 26]', 'pIC50', '< 4.60');

QUERY: Fill in: pIC50 of Cc1ccccc1N1C(C(=O)O)=C(c2ccc3c(c2)OCO3)c2ccccc2S1(=O)=O [Example 12] is ___
RESULT: < 4.60

QUERY: Fill in: pIC50 of O=C(O)C1=C(c2ccc3c(c2)OCO3)c2ccccc2S(=O)(=O)N1c1cc2c(cc1Cl)OCO2 [Example 25] is ___
RESULT: < 4.60

QUERY: Fill in: pIC50 of COc1cc(OC)cc(C2=C(C(=O)O)N(c3ccccc3C(F)(F)F)S(=O)(=O)c3ccccc32)c1 [Example 1] is ___
RESULT: < 5.60

QUERY: Fill in: pIC50 of O=C(O)C1=C(c2ccc3c(c2)OCO3)c2ccccc2S(=O)(=O)N1c1ccccc1F [Example 19] is ___
RESULT: < 4.60

QUERY: Fill in: pIC50 of CCCCc1ccccc1N1C(C(=O)O)=C(c2ccc3c(c2)OCO3)c2ccccc2S1(=O)=O [Example 16] is ___
RESULT: < 5.60

QUERY: Fill in: pIC50 of O=C(O)C1=C(c2ccc3c(c2)OCO3)c2ccccc2S(=O)(=O)N1c1ccccc1Cl [Example 18] is ___
RESULT: < 4.60

* * *

# Study System: recombinant human ETBR (HETB) (Homo sapiens)
# Assay Name: Radioligand binding, [125I]ET-1 to membranes of CHOKI cells expressing recombinant human ETBR (HETB)
# Reported Conditions: [125I]ET-1 binding, human ETB, CHOKI cell membranes
Counter-ions that a name gives are not always drawn.
Recorded IC50 by entry

Worked cases, answers included:
INSERT INTO results (compound, test_value) VALUES
  ('CCc1cc(C2=C(C(=O)O)N(c3ccccc3C(F)(F)F)S(=O)(=O)c3ccccc32)cc2c1OCO2 [Example 10, sodium salt]', '2200 nM'),
  ('Cc1noc(N2C(C(=O)O)=C(c3ccc4c(c3)OCO4)c3ccccc3S2(=O)=O)c1C', '> 25000 nM'),
  ('CCCc1ccccc1N1C(C(=O)O)=C(c2ccc3c(c2)OCO3)c2ccccc2S1(=O)=O', '> 2500 nM');

QUERY: Test system recombinant human ETBR (HETB) (Homo sapiens); read-out IC50; what value for O=C(O)C1=C(c2ccc3c(c2)OCO3)c2ccccc2S(=O)(=O)N1c1ccccc1Br ?
RESULT: > 25000 nM

QUERY: Test system recombinant human ETBR (HETB) (Homo sapiens); read-out IC50; what value for O=C(O)C1=C(c2ccc3c(c2)OCO3)c2ccccc2S(=O)(=O)N1c1ccccc1Cc1ccccc1 ?
RESULT: > 2500 nM

QUERY: Test system recombinant human ETBR (HETB) (Homo sapiens); read-out IC50; what value for COc1ccc(N2C(C(=O)O)=C(c3ccc4c(c3)OCO4)c3ccccc3S2(=O)=O)c(Cl)c1 ?
RESULT: 6200 nM

QUERY: Test system recombinant human ETBR (HETB) (Homo sapiens); read-out IC50; what value for COc1cc(C2=C(C(=O)[O-])N(c3c(C)cccc3C)S(=O)(=O)c3ccccc32)cc2c1OCO2.[Na+] [Example 6, monosodium salt] ?
RESULT: > 2500 nM

QUERY: Test system recombinant human ETBR (HETB) (Homo sapiens); read-out IC50; what value for CCc1ccccc1N1C(C(=O)O)=C(c2ccc3c(c2)OCO3)c2ccccc2S1(=O)=O ?
RESULT: > 2500 nM

QUERY: Test system recombinant human ETBR (HETB) (Homo sapiens); read-out IC50; what value for COc1cc(OC)cc(C2=C(C(=O)O)N(c3ccccc3Br)S(=O)(=O)c3ccccc32)c1 ?
RESULT: > 2500 nM

QUERY: Test system recombinant human ETBR (HETB) (Homo sapiens); read-out IC50; what value for COc1cc(C2=C(C(=O)O)N(c3ccccc3Br)S(=O)(=O)c3ccccc32)cc2c1OCO2 [Example 9, monosodium salt] ?
RESULT: > 2500 nM
